assay-system: Myc proto-oncogene protein (Homo sapiens) (UniProt P01106)
Sequence (P01106 whole entry, the tested form may be a part): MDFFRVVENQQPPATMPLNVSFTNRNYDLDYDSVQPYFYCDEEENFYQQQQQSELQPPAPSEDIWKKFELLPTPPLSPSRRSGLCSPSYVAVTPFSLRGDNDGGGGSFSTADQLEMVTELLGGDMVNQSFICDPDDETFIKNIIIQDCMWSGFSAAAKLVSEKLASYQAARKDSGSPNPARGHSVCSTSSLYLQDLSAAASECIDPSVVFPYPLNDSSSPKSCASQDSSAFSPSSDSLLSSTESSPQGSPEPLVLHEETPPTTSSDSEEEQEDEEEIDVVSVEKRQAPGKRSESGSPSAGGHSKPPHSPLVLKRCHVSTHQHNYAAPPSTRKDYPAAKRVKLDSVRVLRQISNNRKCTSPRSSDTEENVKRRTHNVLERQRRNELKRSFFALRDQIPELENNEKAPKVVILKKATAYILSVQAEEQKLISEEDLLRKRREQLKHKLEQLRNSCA
method: Binding affinity to recombinant human His6 tagged c-Myc bHLH-LZ domain (353 to 439 residues) with GGCD extension at C-terminus expressed in Escherichia coli BL21 DE3 (pLysS) at 25 uM by fluorescence polarization assay
Active and inactive are the calls of the source. The calls are words filed in the database; no cut-off is given here.
One label from this list, please: 1 (active), -1 (inactive)

Solved entries:
O=C1NC(=S)S/C1=C\c1ccc(O)cc1    -1
CCN(CC)c1ccc(/C=C2\SC(=S)NC2=O)cc1    -1
O=C1NC(=S)S/C1=C\c1ccc(Cl)cc1    1
CCc1ccc(/C=C2\SC(SC)=NC2=O)cc1    1
CC(C)c1ccc(/C=C2\SC(=S)NC2=O)cc1    1

# lookup: test call for O=C1NC(=S)S/C1=C\c1ccc(O)c(O)c1
1

# lookup: test call for C=CCN1C(=O)/C(=C\c2ccc(CC)cc2)SC1=S
1

# lookup: test call for CC(C)c1ccc(/C=C2\SC(=S)N(CN3CCCCC3)C2=O)cc1
1

# lookup: test call for O=C1/C(=C/c2ccc(Cl)cc2)SC(=S)N1CN1CCCCC1
1

# lookup: test call for CCc1ccc(/C=C2\SC(=S)N(CCC(C)=O)C2=O)cc1
1

# lookup: test call for C/C(=C1/SC(=S)NC1=O)c1ccccc1
-1

# lookup: test call for CCc1ccc(/C=C2\SC(=S)NC2=O)cc1
1

# lookup: test call for CCc1ccc(/C=C2\SC(=S)N(CN3CCCCC3)C2=O)cc1
1

====

assay-system: Myc proto-oncogene protein (Homo sapiens) (UniProt P01106)
method: Binding affinity to recombinant human His6 tagged c-Myc bHLH-LZ domain (353 to 439 residues) with GGCD extension at C-terminus expressed in Escherichia coli BL21 DE3 (pLysS) by fluorescence polarization assay
attribute-measured: K (µM)
Please state the figure in µM; there is no need to write the unit.

O=C1NC(=S)S/C1=C\c1ccc(O)c(O)c1    8.6
C=CCN1C(=O)/C(=C\c2ccc(CC)cc2)SC1=S    3.1
CCc1ccc(/C=C2\SC(=S)NC2=O)cc1    2.3
CCc1ccc(/C=C2\SC(SC)=NC2=O)cc1    4.1
CC(C)c1ccc(/C=C2\SC(=S)N(CN3CCCCC3)C2=O)cc1    1.8
O=C1NC(=S)S/C1=C\c1ccc(Cl)cc1    2.5

Notebook entry, Myc proto-oncogene protein (Homo sapiens) (UniProt P01106) assay: K of CC(C)c1ccc(/C=C2\SC(=S)NC2=O)cc1 = ?
1

====

assay-system: c-Myc/c-Max (Homo sapiens) (UniProt P01106+P61244)
method: Inhibition of c-Myc/Max interaction in human HL60 nuclear extracts at 100 to 200 uM after 30 mins by co-immunoprecipitation assay
Type: protein assay
Activity calls are given as the source filed them. No cut-off for these calls is given here.
attribute-measured: inhibition

Worked examples follow.
CCc1ccc(/C=C2\SC(=S)N(CN3CCCCC3)C2=O)cc1    Active
O=C1NC(=S)S/C1=C\c1ccc(O)c(O)c1    Active
O=C1/C(=C/c2ccc(Cl)cc2)SC(=S)N1CN1CCCCC1    Active
C#CCN1C(=O)S/C(=C/c2ccc(CC)cc2)C1=O    Active
C=CCN1C(=O)/C(=C\c2ccc(CC)cc2)SC1=S    Active
CCc1ccc(/C=C2\SC(=S)N(CCC(C)=O)C2=O)cc1    Active

Name the reported inhibition value associated with the compound O=C1NC(=S)S/C1=C\C1CCCCC1
Active

Name the reported inhibition value associated with the compound O=C1NC(=S)S/C1=C\c1ccc(Cl)cc1
Active
